# System Name: Protein AF-9 (Homo sapiens) (UniProt P42568)
# Sequence (P42568 whole entry, looked up): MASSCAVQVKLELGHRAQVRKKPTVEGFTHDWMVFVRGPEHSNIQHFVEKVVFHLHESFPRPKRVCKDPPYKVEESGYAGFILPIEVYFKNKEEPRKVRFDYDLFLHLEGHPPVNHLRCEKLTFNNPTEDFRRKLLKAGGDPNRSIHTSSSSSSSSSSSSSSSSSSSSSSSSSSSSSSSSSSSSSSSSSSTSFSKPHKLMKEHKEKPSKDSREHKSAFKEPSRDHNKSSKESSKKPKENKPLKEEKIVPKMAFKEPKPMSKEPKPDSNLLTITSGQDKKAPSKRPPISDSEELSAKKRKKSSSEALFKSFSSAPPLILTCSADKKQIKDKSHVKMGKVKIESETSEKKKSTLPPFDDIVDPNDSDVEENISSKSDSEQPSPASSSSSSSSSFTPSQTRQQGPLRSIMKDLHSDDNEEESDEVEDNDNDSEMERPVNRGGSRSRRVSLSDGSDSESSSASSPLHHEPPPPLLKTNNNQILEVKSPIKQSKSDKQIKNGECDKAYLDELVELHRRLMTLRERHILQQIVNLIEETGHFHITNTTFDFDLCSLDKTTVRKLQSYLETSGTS
# Protocol Description: MLL-AF4/AF9 protein interaction blockers – biochemical, AlphaScreen, biotin-AF4 peptide, FLAG-AF9, single point, primary screen (AID 651704);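 further: 0% = plate neutral control median and 100% = total signal loss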
# Run Parameters: biotin-AF4 peptide binding to FLAG-AF9, at 10 µM
Screen size: about 350,000 compounds; about 1,600 (0.46%) were called active.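 How the source made its calls: active means every replicate reaching a set inhibition limit, whatever the replicate mean (cut at about 25% in these data); inconclusive means mean inhibition reaches that limit but some replicates miss it; inactive means the rest.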 This excerpt belongs to a sample that is enriched for actives.
Choose one outcome from this list and give only that: Yes = active, No = inactive

Here are 8 compounds together with their reported answers.
{"Compound": "N#C[C@@H]1[C@H](c2ccccc2-c2cccc(F)c2)[C@@H](CO)N1C(=O)C1CCCC1", "Class": "No"}
{"Compound": "COc1ccc2c3c([nH]c2c1)[C@@H](CO)N(Cc1cccc(F)c1)CC31CN(CC2CC2)C1", "Class": "No"}
{"Compound": "COc1ccc(C(=O)C2CCCN(Cc3ccc4nonc4c3)C2)c(C)c1 (stereo not given)", "Class": "Yes"}
{"Compound": "Cc1ccccc1C(=O)N1CCN(c2ccc(NC(=O)c3cccs3)cc2)CC1", "Class": "No"}
{"Compound": "COc1ccccc1S(=O)(=O)N(C)C[C@@H]1Oc2cc(C#CCC3CCCC3)ccc2S(=O)(=O)N([C@H](C)CO)C[C@H]1C", "Class": "No"}
{"Compound": "Nc1ccc(N=Nc2ccccc2Cl)c(N)n1", "Class": "Yes"}
{"Compound": "Cc1ccccc1C(=O)Nc1ccc(N2CCCCCC2)cc1", "Class": "Yes"}
{"Compound": "COc1ccc(C(=O)C2CCCN(Cc3cccn3-c3ccccn3)C2)c(C)c1 (stereo not given)", "Class": "No"}

Given CCCNC(=O)N1CC2(CCN(Cc3ccc(F)cc3)CC2)c2c([nH]c3cc(OC)ccc23)[C@@H]1CO , state the outcome it received in this test.
Yes

Given Cc1cc(Nc2ccc(N3CCOCC3)cc2)c2cccc(C)c2n1 , state the outcome it received in this test.
No

----------
The entries below are paired with their reported inhibition.
# System Name: Protein AF-9 (Homo sapiens) (UniProt P42568)
# Protocol Description: MLL-AF4/AF9 protein interaction blockers – biochemical, AlphaScreen, biotin-AF4 peptide, FLAG-AF9, single point, primary screen (AID 651704);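 further: 0% = plate neutral control median and 100% = total signal loss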
# Run Parameters: biotin-AF4 peptide binding to FLAG-AF9, at 10 µM, hits give high values
Out of some 350,000 compounds screened, about 1,600 (0.46%) were called active. This is one part of a sample in which actives are shown more often than they occur.

Entry CCN(CC(=O)Nc1ccc(NC(C)=O)cc1)C(=O)C1CC(=O)N(c2ccc3c(c2)OCCO3)C1 (centres undefined) : reported inhibition = ?
28% (active)

Entry O=C(C[C@@H]1C=C[C@H](NC(=O)Nc2ccccc2F)[C@@H](CO)O1)NCc1ccccc1 : reported inhibition = ?
-2.34% (inactive)

Entry C[C@@H]1CN([C@@H](C)CO)C(=O)c2cc(N(C)C)ccc2O[C@@H](C)CCCCO[C@H]1CN(C)Cc1ccncc1 : reported inhibition = ?
-1.22% (inactive)

Entry O=C(c1cccc(F)c1)N1CC[C@@H]2[C@H](CO)Nc3ccc(C#Cc4ccccc4)cc3[C@@H]21 : reported inhibition = ?
-0.355% (inactive)

----------
# System Name: Protein AF-9 (Homo sapiens) (UniProt P42568)
# Protocol Description: MLL-AF4/AF9 protein interaction blockers – biochemical, AlphaScreen, biotin-AF4 peptide, FLAG-AF9, single point, primary screen (AID 651704);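 further: 0% = plate neutral control median and 100% = total signal loss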
# Run Parameters: biotin-AF4 peptide binding to FLAG-AF9, at 10 µM, hits give high values
Hit rate of the full screen: of about 350,000 compounds, about 1,600 (0.46%) were called active. The list comes from a sample in which actives are over-represented; it also holds close analogues and randomly drawn compounds.
The entries below are paired with their reported inhibition.

Consider the following illustrative entries.
{"Substance Smiles": "O=C(C[C@H]1CC[C@H]2[C@@H](COC[C@H](O)CN2C(=O)c2ccncc2)O1)NCc1cc(F)cc(F)c1", "Reading": "-16% (inactive)"}
{"Substance Smiles": "COc1ccc2c3c(n(C)c2c1)[C@@H](CO)N(C(=O)CN1CCOCC1)CC31CN(C(=O)CC2CC2)C1", "Reading": "0.071% (inactive)"}
{"Substance Smiles": "O=C(CC1CC1)N[C@@H]1C[C@@H]2O[C@H](CO)CC[C@@H]2O[C@@H]1CCc1ccc(C#Cc2ccccc2)cc1", "Reading": "-5.03% (inactive)"}

Entry CCN(CC)c1ccc(/C=N/NC(=O)c2cnccn2)c(O)c1 : reported inhibition = ?
-1.45% (inactive)

Entry CCN(CC)c1ccc(/C=N/Nc2nc(C)cc(C)n2)c(O)c1 : reported inhibition = ?
79.7% (active)
